biological target: HCV NS3 protease genotype 3a (3A-1) (Hepatitis C virus genotype 3a, UniProt Q81258); assay: HCV NS3 protease time-resolved fluorescence (TRF) assay, genotype 3a; assay type: biochemical; settings: Ki 3a
Sequence (Q81258 1664-1717): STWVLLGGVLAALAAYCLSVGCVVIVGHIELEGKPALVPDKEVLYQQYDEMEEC
Sequence (Q81258 1033-1663): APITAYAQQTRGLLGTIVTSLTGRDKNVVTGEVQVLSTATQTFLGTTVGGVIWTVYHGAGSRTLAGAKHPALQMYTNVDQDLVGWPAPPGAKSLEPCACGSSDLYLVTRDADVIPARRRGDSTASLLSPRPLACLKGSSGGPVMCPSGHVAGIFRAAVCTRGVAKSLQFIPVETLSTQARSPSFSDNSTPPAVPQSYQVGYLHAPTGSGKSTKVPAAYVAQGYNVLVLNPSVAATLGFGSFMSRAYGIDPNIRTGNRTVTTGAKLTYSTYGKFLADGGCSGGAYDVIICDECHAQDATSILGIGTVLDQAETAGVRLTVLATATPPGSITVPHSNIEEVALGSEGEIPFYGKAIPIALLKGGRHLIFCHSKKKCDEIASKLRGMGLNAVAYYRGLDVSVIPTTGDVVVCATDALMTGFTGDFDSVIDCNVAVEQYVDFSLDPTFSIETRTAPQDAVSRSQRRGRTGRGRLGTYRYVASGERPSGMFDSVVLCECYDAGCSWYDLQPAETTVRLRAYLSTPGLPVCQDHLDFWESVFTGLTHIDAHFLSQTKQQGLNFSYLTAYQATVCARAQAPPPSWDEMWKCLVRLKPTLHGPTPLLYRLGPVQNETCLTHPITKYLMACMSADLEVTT
pKi: −log10 of the molar value.
Please enter t where pKi is greater than or equal to 9, and f where it is lower.

compound="C=C[C@@H]1C[C@]1(NC(=O)[C@@H]1C[C@@H]2CN1C(=O)[C@H](C1CCCCC1)NC(=O)O[C@@H]1C[C@H]1CCCCCc1c(nc3ccccc3c1OC1CC3COCC(C1)N3C(=O)OC(C)(C)C)O2)C(=O)NS(=O)(=O)C1(C)CC1 (stereo partly drawn)" test_target="HCV NS3 protease genotype 3a (3A-1) (Hepatitis C virus genotype 3a, UniProt Q81258)" class_label=f
compound=C=C[C@@H]1C[C@]1(NC(=O)[C@@H]1C[C@@H]2CN1C(=O)[C@H](C1(C)CCCCC1)NC(=O)O[C@@H]1C[C@H]1CCCCCc1c(nc3ccccc3c1OC1CCN(C)CC1)O2)C(=O)NS(=O)(=O)C1(C)CC1 test_target="HCV NS3 protease genotype 3a (3A-1) (Hepatitis C virus genotype 3a, UniProt Q81258)" class_label=t
compound=C=C[C@@H]1C[C@]1(NC(=O)[C@@H]1C[C@@H]2CN1C(=O)[C@H](C1CCCC1)NC(=O)O[C@@]1(C)CCC[C@@H]1CCCCCc1c(nc3ccccc3c1O)O2)C(=O)NS(=O)(=O)C1CC1 test_target="HCV NS3 protease genotype 3a (3A-1) (Hepatitis C virus genotype 3a, UniProt Q81258)" class_label=f
compound=C=C[C@@H]1C[C@]1(NC(=O)[C@@H]1C[C@@H]2CN1C(=O)[C@H](C1CCCCC1)NC(=O)O[C@@H]1C[C@H]1CCCCCc1c(nc3c(OC)cccc3c1OCCN1CCCCC1)O2)C(=O)NS(=O)(=O)C1(C)CC1 test_target="HCV NS3 protease genotype 3a (3A-1) (Hepatitis C virus genotype 3a, UniProt Q81258)" class_label=f
compound=C=C[C@@H]1C[C@]1(NC(=O)[C@@H]1C[C@@H]2CN1C(=O)[C@H](C1CCCC1)NC(=O)O[C@@H]1CCC[C@H]1CC/C=C/Cc1c(nc3ccccc3c1OCC(=O)N1CCCC1)O2)C(=O)NS(=O)(=O)C1CC1 test_target="HCV NS3 protease genotype 3a (3A-1) (Hepatitis C virus genotype 3a, UniProt Q81258)" class_label=f
compound=COc1c2c(nc3ccccc13)O[C@@H]1C[C@H]3C(=O)N[C@]4(C(=O)NS(=O)(=O)C5(C)CC5)C[C@H]4/C=C\CCCCC[C@H](NC(=O)O[C@@H]4C[C@H]4CCCCC2)C(=O)N3C1 test_target="HCV NS3 protease genotype 3a (3A-1) (Hepatitis C virus genotype 3a, UniProt Q81258)" class_label=f
compound=CCOc1c2c(nc3ccccc13)O[C@@H]1C[C@@H](C(=O)N[C@]3(C(=O)NS(=O)(=O)C4CC4)C[C@H]3CC)N(C1)C(=O)[C@H](C1CCCC1)NC(=O)O[C@@H]1CCC[C@H]1CCCCC2 test_target="HCV NS3 protease genotype 3a (3A-1) (Hepatitis C virus genotype 3a, UniProt Q81258)" class_label=f
compound="C=C[C@@H]1C[C@]1(NC(=O)[C@@H]1C[C@@H]2CN1C(=O)[C@H](C1CCCCC1)NC(=O)O[C@@H]1C[C@H]1CCCCCc1c(nc3ccccc3c1OC1CC3CCC(C1)N3)O2)C(=O)NS(=O)(=O)C1(C)CC1 (stereo partly drawn)" test_target="HCV NS3 protease genotype 3a (3A-1) (Hepatitis C virus genotype 3a, UniProt Q81258)" class_label=t
